Target: human TLR7 (Homo sapiens (Human))
Assay: TLR7 inhibition reporter assay (HEK-Blue SEAP)
Type: cell-based
Details: HEK-Blue cells overexpressing human TLR7, SEAP reporter, gardiquimod 7.5 μM
READOUT LABEL: IC50 (nM)

[[record]]
compound = "Cc1cc(-c2[nH]c3ccc(C4CCNCC4)nc3c2C(C)C)cn2nnnc12"
readout_label = "IC50"
readout_units = "nM"
numeric_value = 1.1


1 = CC(=O)N(C)C1CCC(c2ccc3[nH]c(-c4cn5ncnc5c(C)c4C)c(C(C)C)c3n2)CC1 (stereo not shown) [Example 440]
2 = Cc1cc(-c2[nH]c3cc(C)c(C4CCNCC4)nc3c2C(C)C)cc(C)n1
Ask: Dear colleague, could you let me know whether 1 or 2 has the lower recorded IC50? Thanks. // return label of chosen record
Reply: 2
(2: 2.6 nM, 1: 6.4 nM)

---

Target: human TLR7 (Homo sapiens (Human))
Assay: TLR7 inhibition reporter assay (HEK-Blue SEAP)
Type: cell-based
Conditions: HEK-Blue cells overexpressing human TLR7, SEAP reporter, gardiquimod 7.5 μM
READOUT LABEL: IC50 (nM)

Example entries and their recorded answers appear below.
[[record]]
molecule = "Cc1c(-c2[nH]c3ccc(N4C[C@@H](C)N(C(=O)CN5CCCC5)C[C@@H]4C)nc3c2C(C)C)cn2ncnc2c1C"
readout_units = "nM"
numeric_value = 0.46

[[record]]
molecule = "Cc1c(-c2[nH]c3ccc(N4C[C@@H](C)N(C(=O)CCN5CCCC5)C[C@@H]4C)nc3c2C(C)C)cn2ncnc2c1C"
readout_units = "nM"
numeric_value = 0.85

[[record]]
molecule = "COc1cc(-c2[nH]c3ccc(C4CCC(NC5CCOCC5)C4)nc3c2C(C)C)cn2ncnc12 (stereo not shown) [Example 721]"
readout_units = "nM"
numeric_value = 0.41

[[record]]
molecule = "Cc1c(-c2[nH]c3ccc(N4CCN(CCC(N)=O)[C@@H](C)C4)nc3c2C(C)C)cn2ncnc2c1C"
readout_units = "nM"
numeric_value = 5.3

[[record]]
molecule = "COc1cc(-c2[nH]c3ccc(C4CC(N(C)C(=O)CN(C)C)C4)nc3c2C(C)C)cn2ncnc12 (stereo not shown) [Example 625]"
readout_units = "nM"
numeric_value = 0.72


A = COc1cc(-c2[nH]c3cc(F)c(C4CCN(C(=O)CN(C)C)CC4)nc3c2C(C)C)cn2ncnc12
B = Cc1c(-c2[nH]c3ccc(N4C[C@H](C)N(C(=O)CCN(C)C)[C@@H](C)C4)nc3c2C(C)C)cn2ncnc2c1C
Ask: Dear colleague, could you let me know whether A or B has the lower recorded IC50? Thanks. // return label of chosen record
Reply: A

---

Molecular target: human TLR7 (Homo sapiens (Human), UniProt Q9NYK1)
Sequence (Q9NYK1 27-1049): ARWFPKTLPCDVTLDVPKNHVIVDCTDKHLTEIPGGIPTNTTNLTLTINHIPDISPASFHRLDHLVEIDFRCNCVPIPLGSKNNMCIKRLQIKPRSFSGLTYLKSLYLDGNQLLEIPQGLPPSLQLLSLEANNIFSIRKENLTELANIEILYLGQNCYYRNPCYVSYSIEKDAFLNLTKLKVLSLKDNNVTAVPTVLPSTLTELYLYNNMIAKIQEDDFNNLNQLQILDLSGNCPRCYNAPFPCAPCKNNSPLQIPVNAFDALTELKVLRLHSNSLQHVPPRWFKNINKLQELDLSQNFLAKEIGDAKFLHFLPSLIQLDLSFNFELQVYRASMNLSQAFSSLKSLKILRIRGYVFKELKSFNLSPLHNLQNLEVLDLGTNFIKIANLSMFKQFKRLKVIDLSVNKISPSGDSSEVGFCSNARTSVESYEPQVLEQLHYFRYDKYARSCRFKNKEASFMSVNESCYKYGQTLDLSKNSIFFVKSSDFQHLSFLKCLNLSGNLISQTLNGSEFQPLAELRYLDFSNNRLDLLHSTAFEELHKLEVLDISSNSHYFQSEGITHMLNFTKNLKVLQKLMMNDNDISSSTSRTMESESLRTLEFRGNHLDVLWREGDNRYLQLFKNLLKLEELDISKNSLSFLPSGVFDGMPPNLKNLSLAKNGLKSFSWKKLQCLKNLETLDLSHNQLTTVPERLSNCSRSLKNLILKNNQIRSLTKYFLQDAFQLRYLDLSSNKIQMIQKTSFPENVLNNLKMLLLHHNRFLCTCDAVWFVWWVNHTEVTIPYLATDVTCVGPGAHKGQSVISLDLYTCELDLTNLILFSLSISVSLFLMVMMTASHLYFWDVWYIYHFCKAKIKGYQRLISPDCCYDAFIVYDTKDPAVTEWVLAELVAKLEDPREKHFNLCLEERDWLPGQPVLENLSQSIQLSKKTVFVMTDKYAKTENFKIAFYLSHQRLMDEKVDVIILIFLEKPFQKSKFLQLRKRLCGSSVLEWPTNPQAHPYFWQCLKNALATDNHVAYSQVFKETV
Experiment: TLR7 inhibition reporter assay (HEK-Blue SEAP)
Format: cell-based
Conditions: HEK-Blue cells overexpressing human TLR7, SEAP reporter, gardiquimod 7.5 μM
pIC50: −log10 of the molar value.
READOUT LABEL: pIC50

[[record]]
compound = "COc1cc(-c2[nH]c3ccc(C4CCC(NC5CCOC(C)(C)C5)C4)nc3c2C(C)C)cn2ncnc12 (stereo not shown)"
readout_label = "pIC50"
numeric_value = 8.96

[[record]]
compound = "COc1cc(-c2[nH]c3ccc(C4CN(CCS(C)(=O)=O)C4)nc3c2C(C)C)cn2ncnc12"
readout_label = "pIC50"
numeric_value = 8.64


a = Cc1c(-c2[nH]c3ccc(C4CN(CC(C)(C)O)C4)nc3c2C(C)C)cn2ncnc2c1C
b = COc1cc(-c2[nH]c3ccc(OC4CN(C(C)C)C4)nc3c2C(C)C)cn2ncnc12
Ask: Short answer wanted: higher pIC50, a or b ? // return label of chosen record
Reply: a

---

Biological target: human TLR7 (Homo sapiens (Human))
Assay: TLR7 inhibition reporter assay (HEK-Blue SEAP)
Type: cell-based
Conditions: HEK-Blue cells overexpressing human TLR7, gardiquimod 7.5 μM stimulation, SEAP reporter
pIC50: −log10 of the molar value.
READOUT LABEL: pIC50

Example entries and their recorded answers appear below.
[[record]]
molecule = "Cc1c(-c2[nH]c3ccc(C4CCC(NC5COC5)CC4)nc3c2C(C)C)cn2cnnc2c1C (stereo not shown) [Example 234]"
readout_label = "pIC50"
numeric_value = 8.80

[[record]]
molecule = "Cc1cnc(CNC2CCC(c3ccc4[nH]c(-c5cn(C)c6ncccc56)c(C(C)C)c4n3)CC2)cn1 (stereo not shown) [Example 207]"
readout_label = "pIC50"
numeric_value = 8.72


P = COc1cc(-c2[nH]c3ccc(N4CCN(CCC(C)(C)C)CC4)nc3c2C(C)C)cn2ncnc12
Q = COc1cc(-c2[nH]c3cc(F)c(C4CCC(NCC5(C)COC5)CC4)nc3c2C(C)C)cn2ncnc12 (stereo not shown) [Example 341]
R = COc1cc(-c2[nH]c3ccc(C4CCC(N(C)C5CC5)CC4)nc3c2C(C)C)cn2ncnc12 (stereo not shown) [Example 172]
S = Cc1cnc(CNC2CCC(c3ccc4[nH]c(-c5cn6ncnc6c(C)c5C)c(C(C)C)c4n3)CC2)cn1 (stereo not shown) [Example 359]
T = CC(C)c1c(-c2cn(C)c3ncncc23)[nH]c2ccc(C3CCC(NCC(=O)N(C)C)CC3)nc12 (stereo not shown)
Ask: Parameters: sort_field (pIC50), sort_dir (desc). // respond by listing labels in the order requested
Reply: Q, T, R, P, S

---

Target: human TLR8 (Homo sapiens (Human), UniProt Q9NR97)
Sequence (Q9NR97 27-1041): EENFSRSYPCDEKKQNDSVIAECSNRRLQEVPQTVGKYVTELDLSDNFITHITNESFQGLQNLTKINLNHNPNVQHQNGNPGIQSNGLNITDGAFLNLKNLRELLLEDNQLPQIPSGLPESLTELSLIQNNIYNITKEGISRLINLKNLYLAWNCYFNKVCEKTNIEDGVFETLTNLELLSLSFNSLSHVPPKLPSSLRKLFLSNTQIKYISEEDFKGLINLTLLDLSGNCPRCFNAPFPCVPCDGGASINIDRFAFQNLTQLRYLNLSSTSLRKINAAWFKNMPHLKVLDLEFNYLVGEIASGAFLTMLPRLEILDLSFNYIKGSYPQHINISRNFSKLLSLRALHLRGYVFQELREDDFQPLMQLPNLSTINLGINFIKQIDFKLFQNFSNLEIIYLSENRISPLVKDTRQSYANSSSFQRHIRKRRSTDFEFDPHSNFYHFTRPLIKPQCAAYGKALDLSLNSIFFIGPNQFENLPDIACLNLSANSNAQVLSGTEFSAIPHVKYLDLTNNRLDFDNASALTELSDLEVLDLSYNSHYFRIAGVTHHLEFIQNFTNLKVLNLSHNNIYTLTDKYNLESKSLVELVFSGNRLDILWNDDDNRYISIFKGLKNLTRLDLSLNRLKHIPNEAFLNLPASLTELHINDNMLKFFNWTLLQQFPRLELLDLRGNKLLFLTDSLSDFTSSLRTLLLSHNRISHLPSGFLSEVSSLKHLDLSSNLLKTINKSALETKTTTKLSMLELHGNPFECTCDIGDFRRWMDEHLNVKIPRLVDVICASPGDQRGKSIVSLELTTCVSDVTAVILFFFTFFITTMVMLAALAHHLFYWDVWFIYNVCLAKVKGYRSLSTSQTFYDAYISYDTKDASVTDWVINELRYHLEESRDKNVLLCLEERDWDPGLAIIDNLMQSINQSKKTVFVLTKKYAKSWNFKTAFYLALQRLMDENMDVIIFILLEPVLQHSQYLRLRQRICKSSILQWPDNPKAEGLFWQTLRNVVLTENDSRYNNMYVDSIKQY
Assay: TLR8 inhibition reporter assay (HEK-Blue SEAP);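 note: SEAP driven by IFN-β minimal promoter carrying NF-κB and AP-1 sites, compounds dosed 0.05 nM to 50 µM for 22 h, inhibition scaled between agonist-plus-DMSO and reference-inhibitor wells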
Conditions: read-out: TLR8 IC50; HEK-Blue cells overexpressing human TLR8, SEAP reporter, R848 15.9 μM
READOUT LABEL: IC50 (nM)

[[record]]
compound = "Cc1c(-c2[nH]c3ccc(C4CCC(N5CCCC5)CC4)nc3c2C(C)C)cn2ncnc2c1C (stereo not shown)"
tested_on = "human TLR8 (Homo sapiens (Human), UniProt Q9NR97)"
numeric_value = 8.5

[[record]]
compound = "Cc1c(-c2[nH]c3ccc(C4CCN(C5CCOCC5)CC4)nc3c2C(C)C)cn(C)c(=O)c1C"
tested_on = "human TLR8 (Homo sapiens (Human), UniProt Q9NR97)"
numeric_value = 5.3

[[record]]
compound = "Cc1cc2[nH]c(-c3cc(C)c4ncnn4c3)c(C(C)C)c2nc1C1CCN(C(=O)CN(C)C)CC1"
tested_on = "human TLR8 (Homo sapiens (Human), UniProt Q9NR97)"
numeric_value = 98


I = Cc1c(-c2[nH]c3ccc(C4CCC(N(C)Cc5ncccn5)CC4)nc3c2C(C)C)cn2ncnc2c1C (stereo not shown) [Example 418]
II = Cc1c(-c2[nH]c3ccc(C4CCC(NCCS(=O)(=O)C(F)(F)F)CC4)nc3c2C(C)C)cn2ncnc2c1C (stereo not shown)
III = Cc1cc(-c2[nH]c3ccc(C4CN(CC#N)CCO4)nc3c2C(C)C)cn(C)c1=O (stereo not shown)
IV = Cc1c(-c2[nH]c3ccc(C4CCC(N(C)C(=O)CN(C)C)CC4)nc3c2C(C)C)cn2ncnc2c1C (stereo not shown) [Example 404]
Ask: Parameters: sort_field (IC50), sort_dir (desc). // respond by listing labels in the order requested
Reply: II, III, IV, I

---

Molecular target: human TLR7 (Homo sapiens (Human))
Experiment: TLR7 inhibition reporter assay (HEK-Blue SEAP)
Assay type: cell-based
Settings: HEK-Blue cells overexpressing human TLR7, SEAP reporter, gardiquimod 7.5 μM
pIC50: −log10 of the molar value.
READOUT LABEL: pIC50

[[record]]
compound = "Cc1c(-c2[nH]c3ccc(N4CC5(CN(C(=O)CN(C)C)C5)C4)nc3c2C(C)C)cn2ncnc2c1C"
tested_on = "human TLR7 (Homo sapiens (Human))"
readout_label = "pIC50"
numeric_value = 8.44

[[record]]
compound = "Cc1cc(-c2[nH]c3ccc(C4CCNCC4)nc3c2C(C)C)nn(C)c1=O"
tested_on = "human TLR7 (Homo sapiens (Human))"
readout_label = "pIC50"
numeric_value = 7.42

[[record]]
compound = "COc1ncc(CN(C)C2CCC(c3ccc4[nH]c(-c5cn6ncnc6c(C)c5C)c(C(C)C)c4n3)CC2)cn1 (stereo not shown) [Example 405]"
tested_on = "human TLR7 (Homo sapiens (Human))"
readout_label = "pIC50"
numeric_value = 8.44

[[record]]
compound = "COc1cc(-c2[nH]c3ccc(C4CC(NC(=O)CN(C)C)C4)nc3c2C(C)C)cn2ncnc12 (stereo not shown) [Example 619]"
tested_on = "human TLR7 (Homo sapiens (Human))"
readout_label = "pIC50"
numeric_value = 9.37

[[record]]
compound = "CCCN1CCC(c2ccc3[nH]c(-c4cn(C)c(=O)c(Cl)c4C)c(C(C)C)c3n2)CC1"
tested_on = "human TLR7 (Homo sapiens (Human))"
readout_label = "pIC50"
numeric_value = 8.22


P = Cc1c(-c2[nH]c3ccc(C4CCC(NCC(C)(C)S(C)(=O)=O)CC4)nc3c2C(C)C)cn2ncnc2c1C (stereo not shown) [Example 455]
Q = Cc1cc(-c2[nH]c3ccc(C4CCN(C5CCN(C)C5=O)CC4)nc3c2C(C)C)cn2ncnc12 (stereo not shown)
Ask: Dear colleague, could you let me know whether P or Q has the lower recorded pIC50? Thanks. // return label of chosen record
Reply: P

Numbers sourced from patent US10544143B2.
